- Tgt: Voltage-gated inwardly rectifying potassium channel KCNH2 (Homo sapiens)
- Sequence (Q12809 whole entry): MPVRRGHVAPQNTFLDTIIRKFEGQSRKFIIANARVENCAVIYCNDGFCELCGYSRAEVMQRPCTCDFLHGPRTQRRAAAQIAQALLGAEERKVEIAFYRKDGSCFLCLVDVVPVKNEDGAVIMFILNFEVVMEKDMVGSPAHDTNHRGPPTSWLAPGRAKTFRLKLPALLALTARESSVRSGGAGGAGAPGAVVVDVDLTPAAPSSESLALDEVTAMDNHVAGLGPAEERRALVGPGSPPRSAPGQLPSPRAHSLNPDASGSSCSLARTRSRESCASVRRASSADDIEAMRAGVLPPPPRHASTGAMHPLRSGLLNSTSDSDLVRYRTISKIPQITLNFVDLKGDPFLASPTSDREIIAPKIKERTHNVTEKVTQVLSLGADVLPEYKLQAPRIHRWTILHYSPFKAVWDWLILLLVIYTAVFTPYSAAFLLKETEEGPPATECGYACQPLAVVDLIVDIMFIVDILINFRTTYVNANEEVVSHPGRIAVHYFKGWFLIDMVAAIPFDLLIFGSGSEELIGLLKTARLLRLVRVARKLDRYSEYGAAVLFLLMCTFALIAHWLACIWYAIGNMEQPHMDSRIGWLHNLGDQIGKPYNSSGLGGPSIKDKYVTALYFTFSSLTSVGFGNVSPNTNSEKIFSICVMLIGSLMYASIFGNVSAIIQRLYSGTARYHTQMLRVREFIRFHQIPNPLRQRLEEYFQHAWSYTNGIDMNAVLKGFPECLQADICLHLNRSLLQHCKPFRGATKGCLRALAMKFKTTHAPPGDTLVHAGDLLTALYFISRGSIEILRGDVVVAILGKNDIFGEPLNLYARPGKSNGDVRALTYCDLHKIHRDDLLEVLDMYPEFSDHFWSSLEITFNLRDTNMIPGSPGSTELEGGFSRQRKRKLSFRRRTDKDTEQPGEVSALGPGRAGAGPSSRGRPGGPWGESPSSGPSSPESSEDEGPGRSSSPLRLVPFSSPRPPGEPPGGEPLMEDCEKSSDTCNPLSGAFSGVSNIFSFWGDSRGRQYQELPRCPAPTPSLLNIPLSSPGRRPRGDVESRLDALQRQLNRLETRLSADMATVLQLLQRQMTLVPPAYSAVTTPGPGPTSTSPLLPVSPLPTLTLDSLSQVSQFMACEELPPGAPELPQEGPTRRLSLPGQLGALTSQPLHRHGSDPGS
Measure: IC50

Given `COc1ccc([C@H]2CC(=O)c3cc(OC)cc(OC)c32)cc1` , report its IC50 on Voltage-gated inwardly rectifying potassium channel KCNH2 (Homo sapiens).
> 30 µM

* * *

- Assay Summary: AUC (0 to infinity) in 12 hr starved C57 mouse at 5 mg/kg, iv measured for 0.083 to 24 hrs post-dose by LC-MS-MS analysis
- Type: ADME, organism-based
- Parameters: time upper 24 hrs, time lower 0.083 hrs, dose 5 mg/kg, route iv
- Experimental Context: in vivo
Measure: AUC(0-inf) (ng·h/mL)
Only the number, expressed in ng·h/mL, is required.

Please list AUC(0-inf) recorded for the compound `COc1ccc([C@H]2CC(=O)c3cc(OC)cc(OC)c32)cc1`
8640

* * *

- Tested on: P-gp (human)
- Assay Summary: Apparent permeability in dog MDCK-MDR1 cells transfected with human P-gp
- Assay type: ADME, cell-based, Canis lupus familiaris
Measure: Papp
// unit must come after the numeric part

Please list Papp recorded for the molecule `COc1ccc([C@H]2CC(=O)c3cc(OC)cc(OC)c32)cc1`
23.3 ×10⁻⁶ cm/s

* * *

- Assay Summary: n-Octanol/water partition coefficient, logP of the compound incubated for 24 hrs by HPLC analysis
- Type: physicochemical
Measure: logP at 24 h
# output: bare number, no unit

Please list logP at 24 h recorded for the molecule `COc1ccc([C@H]2CC(=O)c3cc(OC)cc(OC)c32)cc1`
2.01

* * *

- Test system: RAW264.7
- Assay Summary: Inhibition of LPS-induced TNFalpha production in mouse RAW264.7 cells preincubated for 2 hrs followed by LPS treatment for 24 hrs by RT-qPCR analysis
- Assay type: functional, cell-based
Reported IC50 values are given for each entry in this list.
Only the number, expressed in µM, is required.

Look over these answered cases.
COc1cc2c(cc1OC)C(c1ccc(C)cc1)CC2=O (configuration not stated) = 47.3
COc1ccc(C2c3c(OC)cc(OC)cc3C(=O)C2c2cc(OC)cc(OC)c2)cc1 (configuration not stated) = 46
COc1ccc([C@H]2CC(=O)c3cc(OC)cc(OC)c32)cc1 = 0.58

Please list IC50 recorded for the compound COc1cc(OC)c2c(c1)C(=O)CC2c1ccc(OC(C)(F)F)cc1 (configuration not stated)
4.51

Please list IC50 recorded for the compound Cc1ccc(C2CC(=O)c3cc4c(cc32)OCO4)cc1 (configuration not stated)
43.6

Please list IC50 recorded for the compound COc1cc(OC)c2c(c1)C(=O)CC2c1ccc(SC)cc1 (configuration not stated)
3.92

Please list IC50 recorded for the compound COc1cc(OC)c2c(c1)C(=O)CC2c1ccc(C)cc1 (configuration not stated)
48.3

* * *

- Tested on: RAW264.7
- Assay Summary: Inhibition of LPS-induced TNFalpha production in mouse RAW264.7 cells at 50 uM preincubated for 2 hrs followed by LPS treatment for 24 hrs by RT-qPCR analysis relative to control
- Assay type: functional
- Experimental Context: time 26 hrs
Could you label it yes (1) if measured inhibition at 50 µM is 50% or higher, and no (0) otherwise?

COc1cc(OC)c2c(c1)C(=O)CC2c1ccc(OC(C)(F)F)cc1 (stereo unspecified) = yes (1)

Check this molecule for inhibition at 50 µM at or above 50%: COc1cc(OC)c2c(c1)C(=O)CC2c1cccs1 (stereo unspecified)
no (0)

Check this molecule for inhibition at 50 µM at or above 50%: COc1cc(OC)c2c(c1)C(=O)CC2c1ccc(Br)cc1 (stereo unspecified)
no (0)

Check this molecule for inhibition at 50 µM at or above 50%: COc1ccc(C2CC(=O)c3cc(OC)cc(OC)c32)cc1 (stereo unspecified)
yes (1)

Check this molecule for inhibition at 50 µM at or above 50%: COc1ccc(C2c3c(OC)cc(OC)cc3C(=O)C2c2cc(OC)cc(OC)c2)cc1 (stereo unspecified)
yes (1)

Check this molecule for inhibition at 50 µM at or above 50%: `COc1ccc([C@H]2CC(=O)c3cc(OC)cc(OC)c32)cc1`
yes (1)

Check this molecule for inhibition at 50 µM at or above 50%: COc1cc(OC)c2c(c1)C(=O)CC2c1ccc2c(c1)OCO2 (stereo unspecified)
no (0)

Check this molecule for inhibition at 50 µM at or above 50%: COc1cc2c(cc1OC)C(c1ccc(C)cc1)CC2=O (stereo unspecified)
yes (1)

Check this molecule for inhibition at 50 µM at or above 50%: COc1cc(OC)c2c(c1)C(=O)CC2c1ccccc1C (stereo unspecified)
yes (1)

Check this molecule for inhibition at 50 µM at or above 50%: COc1cc(OC)c2c(c1)C(=O)CC2c1csc2ccccc12 (stereo unspecified)
no (0)

* * *

- System: RAW264.7
- Assay Summary: Inhibition of LPS-induced TNFalpha production in mouse RAW264.7 cells preincubated for 2 hrs followed by LPS treatment for 24 hrs by RT-qPCR analysis
- Format: functional, cell-based
Reported IC50 values are given for each entry in this list.
Only the number, expressed in µM, is required.

Given COc1cc(OC)c2c(c1)C(=O)CC2c1ccc2cc(OC)ccc2c1 (stereo not given) , report its IC50 on RAW264.7.
51.5

Given COc1cc(OC)cc(C2CC(=O)c3cc(OC)ccc32)c1 (stereo not given) , report its IC50 on RAW264.7.
3.52

Given COc1cc(OC)c2c(c1)C(=O)CC2c1ccccc1C (stereo not given) , report its IC50 on RAW264.7.
4

Given COc1ccc(C2CC(=O)c3cc(OC)cc(OC)c32)cc1 (stereo not given) , report its IC50 on RAW264.7.
1.26

* * *

- Tested on: RAW264.7
- Assay Summary: Inhibition of LPS-induced TNFalpha production in mouse RAW264.7 cells at 50 uM preincubated for 2 hrs followed by LPS treatment for 24 hrs by RT-qPCR analysis relative to control
- Type: functional
- Experimental Context: time 26 hrs
Measure: inhibition at 50 µM (%)
Only the number, expressed in %, is required.

Look over these answered cases.
COc1cc(OC)c2c(c1)C(=O)CC2c1ccc(C)cc1 (stereo unspecified) = 49.9
COc1cc(OC)c2c(c1)C(=O)CC2c1ccc(OC(F)(F)F)cc1 (stereo unspecified) = 4.4
COc1cc(OC)c2c(c1)C(=O)CC2c1ccc(F)cc1 (stereo unspecified) = -4.2
COc1cc(OC)c2c(c1)C(=O)CC2c1ccc(Cl)cc1 (stereo unspecified) = -98.9

Please list inhibition at 50 µM recorded for the molecule COc1cc(OC)c2c(c1)C(=O)CC2c1ccc(SC)cc1 (stereo unspecified)
79.8

Please list inhibition at 50 µM recorded for the molecule COc1cc(OC)cc(C2CC(=O)c3cc(OC)ccc32)c1 (stereo unspecified)
0.2

Please list inhibition at 50 µM recorded for the molecule COc1cc2c(cc1OC)C(c1ccc(F)cc1)CC2=O (stereo unspecified)
80

Please list inhibition at 50 µM recorded for the molecule COc1cc(OC)c2c(c1)C(=O)CC2c1ccc2cc(OC)ccc2c1 (stereo unspecified)
4.6

* * *

- Tested on: RAW264.7
- Assay Summary: Inhibition of LPS-induced TNFalpha production in mouse RAW264.7 cells at 50 uM preincubated for 2 hrs followed by LPS treatment for 24 hrs by RT-qPCR analysis relative to control
- Format: functional
- Experimental Context: time 26 hrs
Measure: inhibition at 50 µM (%)
Only the number, expressed in %, is required.

O=C1CC(c2ccc(F)cc2)c2cc3c(cc21)OCO3 (stereo not drawn) = 5.3
Cc1ccc(C2CC(=O)c3cc4c(cc32)OCO4)cc1 (stereo not drawn) = 66.2

Please list inhibition at 50 µM recorded for the compound COc1ccc2c(c1)C(=O)CC2c1ccc(F)cc1 (stereo not drawn)
6.5
